Test system: HOP-92 NSCLC
Assay Protocol: NCI-60 one-dose screen, 48 h (100 = growth as untreated, 0 = no growth, -100 = all killed)
Reported Conditions: 10 µM unless noted
The panel holds about 83,000 compounds, 20% with a hit somewhere; the sample as a whole holds those more often. Calls of active or inactive are those of the source. The calls were made as follows: active = growth percent below 10; inactive = the rest.
Reported Endpoint: growth

INSERT INTO measurements (compound, system_tested, reported_endpoint, result) VALUES
  ('COc1ccc([C@@H]2c3[nH]c4ccccc4c3CC3C(=O)N(C4CCN(Cc5c(F)cccc5F)CC4)CC(=O)N32)c(OC)c1 (stereo partly drawn)', 'HOP-92 NSCLC', 'growth', '18.8% [5.26 µM] (inactive)'),
  ('O=C(Nc1nc2ccc(O)cc2s1)c1cccc(C(F)(F)F)c1', 'HOP-92 NSCLC', 'growth', '69% (inactive)'),
  ('Nc1c(C(=O)Nc2ccc(Cl)cc2)sc2nc(-c3cnccn3)cc(-c3cccs3)c12', 'HOP-92 NSCLC', 'growth', '52.6% (inactive)'),
  ('N#Cc1c(-c2ccc(F)cc2)nc2c(C#N)c(Nc3ccccc3)nn2c1N', 'HOP-92 NSCLC', 'growth', '92.5% (inactive)'),
  ('CN(C)CCCNc1c2ccccc2nc2c1oc1ccc(Cl)cc12', 'HOP-92 NSCLC', 'growth', '34.8% (inactive)'),
  ('O=C(N/N=C/c1cccs1)c1[nH]c2ccc(Br)cc2c1-c1ccccc1', 'HOP-92 NSCLC', 'growth', '39.9% (inactive)'),
  ('O=c1[nH]c2ccccc2cc1CSc1ccccc1Nc1nccc(-c2ccc(C(F)(F)F)cc2)n1', 'HOP-92 NSCLC', 'growth', '20.5% (inactive)'),
  ('CC(=O)c1ccc(Nc2nc(SC(C)C)nc(-c3ccccc3)c2C#N)cc1', 'HOP-92 NSCLC', 'growth', '70.2% (inactive)');

###

Tested on: MDA-MB-231 breast
Assay Protocol: NCI-60 one-dose screen, 48 h
Reported Conditions: 10 µM unless noted
Compounds without any hit were thinned out: in the full panel of roughly 83,000, 20% have a hit. Calls of active or inactive are those of the source. How the source made its calls: active means growth percent below 10; inactive means the rest.
Labels: active, inactive

INSERT INTO assay_data (compound, label_value) VALUES
  ('CCN1C(=S)N(CC)C2C1N=C(SC)N2/N=C/C=C/c1ccccc1[N+](=O)[O-] (centres undefined)', 'inactive'),
  ('Cc1ccccc1NC(=O)/C=C/c1ccc(OCCOc2ccc3c(C)cc(=O)oc3c2)cc1', 'inactive'),
  ('COc1cc(/C=C/C(=O)c2ccc(C(F)(F)F)cc2)ccc1Oc1nc(NCCO)nc(N2CCOCC2)n1', 'inactive'),
  ('CN1CCN(Cc2ccc(NC(=O)c3cncc(C#Cc4cnc5[nH]ncc5c4)c3)cc2C(F)(F)F)CC1', 'active'),
  ('O=C1Nc2cc(Cl)ccc2/C1=C\c1ccc(OCc2ccc([N+](=O)[O-])cc2)cc1', 'inactive'),
  ('C#Cc1nc(C2=C(C)C(OC(=O)CCC(=O)O)CC2)cs1 (centres undefined)', 'inactive'),
  ('CC(=O)Oc1ccccc1C(=O)Nc1cc(C(C)C)ccc1C', 'active'),
  ('CN(C)CCCNc1c2ccc(Cl)cc2nc2c1oc1ccc(Cl)cc12', 'active'),
  ('Clc1ccc2c(NCCCN3CCOCC3)c3oc4ccc(Cl)cc4c3nc2c1', 'inactive'),
  ('COc1ccc(NC2=CC(=O)C(C)=C(C)C2=O)cc1', 'inactive'),
  ('Cc1cc2nc3c4cc(Cl)ccc4n(CC(=O)NCCN(C)C)c3nc2cc1C', 'inactive'),
  ('CSCCC(C(=O)O)N1C(=O)/C(=C/c2ccc(O)c(O)c2)SC1=S (centres undefined)', 'inactive'),
  ('NC(=O)c1cc(-c2ccc3ncnc(N4CCc5cc(F)c(Cl)cc54)c3c2)cnc1N', 'inactive'),
  ('CCOC(=O)c1sc(N)c(C(=O)OCC)c1C', 'inactive'),
  ('COc1ccc(-c2nc3ccc(-c4nnc(SCC(=O)Nc5ccc(C(C)=O)cc5)o4)cc3[nH]2)cc1', 'inactive'),
  ('N#Cc1ccc(C(=O)CSc2nc(Nc3ccc(S(N)(=O)=O)cc3)c3ccccc3n2)cc1', 'inactive'),
  ('Fc1ccc(-c2nc(C(Cl)Cl)nc3cc(-c4ccccc4)nn23)cc1', 'inactive'),
  ('COc1ccc(CNS(=O)(=O)/N=C2\NC(=O)NC2=C(Cl)Cl)cc1', 'inactive'),
  ('CC1=C(C)C(=O)C(Nc2ccccc2)=C(Cl)C1=O', 'inactive'),
  ('CCCSc1nc(Nc2ccc(/C(C)=N\NC(N)=S)cc2)c(C#N)c(-c2ccc(OC)cc2)n1', 'active'),
  ('N/C(=N\c1nc2c(Br)cccc2s1)C(Br)Br', 'active'),
  ('O=C(Nc1nc2ccc(O)cc2s1)c1cccc(C(F)(F)F)c1', 'inactive'),
  ('C#Cc1nc(C2=C(C)/C(=N/OCc3ccccc3)CC2)cs1', 'active'),
  ('Cn1c(SCC(=O)Nc2ccc(-c3nc4ccc([N+](=O)[O-])cc4[nH]3)cc2)nc2ccccc2c1=O', 'inactive'),
  ('CCOC(=O)c1c(Nc2ccccc2)nn2c(N)c(C#N)c(-c3ccc(OC)cc3)nc12', 'inactive'),
  ('O=C1c2c(c3c4cc(Br)ccc4[nH]c3c3ccc4ccccc4c23)C(=O)N1CCO', 'inactive'),
  ('CCCCN1C(=O)/C(=c2\sc3n(c2=O)C2C(NN=3)N(CC)C(=O)N2CC)c2cc(Cl)ccc21 (centres undefined)', 'inactive'),
  ('O=C(CSc1nc2sc3c(c2c(=O)n1-c1ccc(Cl)cc1)CCCC3)NNC(=O)Nc1ccc(Cl)c(C(F)(F)F)c1', 'inactive'),
  ('O=C1Nc2cc(Cl)ccc2/C1=C\c1ccc(OCc2ccc(Br)cc2F)cc1', 'active'),
  ('CC(C)(C)Nc1nc2c(OCCc3ccccc3)cccn2c1-c1ccc(O)cc1', 'inactive'),
  ('COc1ccc(-c2csc(N/N=C/c3c(-c4ccc(S(C)(=O)=O)cc4)nc4ccccn34)n2)cc1', 'inactive'),
  ('Nc1nc(N)c2c(n1)NC(c1ccc(C(F)(F)F)cc1)CC(c1ccc(Nc3nc(NCCO)nc(Nc4ccc(Cl)cc4)n3)cc1)=N2 (centres undefined)', 'active'),
  ('COc1cc(OC)c(S(=O)(=O)NNC(=O)c2ccncc2)cc1C(=O)/C=C/c1ccc(C)cc1', 'inactive'),
  ('CCCCCCNC(=O)Oc1ccc(/C(=C(/C)c2ccccc2)c2ccc(OCCN3CCCCCC3)cc2)cc1', 'inactive'),
  ('O=C(c1ccc(O)cc1)C1[C@H](c2ccc(Cl)cc2)[C@@H](c2ccccc2)NC12C(=O)Nc1ccc(Cl)cc12 (some centres undefined)', 'inactive'),
  ('COc1cc(OC)c(C2SCC(=O)N2Nc2ncnc3ccccc23)cc1OC (centres undefined)', 'inactive'),
  ('CC(C)NC(=O)c1cc(-c2ccc(NC(=O)Nc3ccc(N4CCOCC4)c(C(F)(F)F)c3)cc2)nc2cccnc12', 'inactive'),
  ('O=C(N/N=C/c1cccs1)c1[nH]c2ccc(Br)cc2c1-c1ccccc1', 'active'),
  ('O=C1/C(=C/C2=Cc3ccccc3OC2)SC(=S)N1c1ccc(F)cc1', 'inactive');

The origin of these recorded values is PubChem BioAssay (NCI).
